// reported cytotoxicity at 70.5 h for each item listed
# assay notes: Human HepG2 cell viability assay in 384 well format
# Format: toxicity, cell-based
# Design: dose 125 nL, time 70.5 hour; concentration not given beside the values
# settings: HepG2 cells, read-out: Inhibition
Response body: numeric value in %, unit text excluded.

// known answers, use as guide
>  <molecule>
CCCc1nc(C(=O)NCCN2CCC(c3ccccc3C)C2)cs1 (stereo unspecified)

>  <measured parameter>
cytotoxicity at 70.5 h

>  <numeric readout>
0.739

$$$$
>  <molecule>
COCC(=O)N1CCC2(CC(=O)N(c3cccc(F)c3)C2)C1 (stereo unspecified)

>  <measured parameter>
cytotoxicity at 70.5 h

>  <numeric readout>
-9.01

$$$$
>  <molecule>
CCn1c(C2CCCN(Cc3ccc(OC)c(C)c3C)C2)nn(C)c1=O (stereo unspecified)

>  <measured parameter>
cytotoxicity at 70.5 h

>  <numeric readout>
-5.07

$$$$
>  <molecule>
CCCS(=O)(=O)NCC1CCOc2ccccc2C1 (stereo unspecified)

>  <measured parameter>
cytotoxicity at 70.5 h

>  <numeric readout>
-1.69

$$$$
>  <molecule>
O=C1CC[C@]2(CC[C@@H](NCc3ccc4c(c3)OCO4)CC2)N1

>  <measured parameter>
cytotoxicity at 70.5 h

>  <numeric readout>
19.9

$$$$

Give the measured cytotoxicity at 70.5 h for Cc1ccc(S(=O)(=O)N2CCOc3ccccc32)cc1C(N)=O
14

Give the measured cytotoxicity at 70.5 h for Cc1nn(C)c(C)c1NC(=O)CN1CCc2c(nc(C3CC3)n2C)C1
12.4

----------
// reported cytotoxicity at 70.5 h for each item listed
# assay notes: Human HepG2 cell viability assay in 384 well format
# Type: toxicity, cell-based
# Set-up: dose 125 nL, time 70.5 hour; concentration not given beside the values
# settings: HepG2 cells, read-out: Inhibition
Response body: numeric value in %, unit text excluded.

Give the measured cytotoxicity at 70.5 h for CN(C)Cc1nnc2n1CCN(Cc1ccccn1)CC2
-10.5

Give the measured cytotoxicity at 70.5 h for Cc1cc(C(=O)N2CCC[C@]3(C[C@@H](OCC4CC4)CO3)C2)no1
-11.6

Give the measured cytotoxicity at 70.5 h for Fc1ccc(-c2nc(CN3CCOC(Cn4cccn4)C3)co2)cc1 (stereo unspecified)
-5.89

Give the measured cytotoxicity at 70.5 h for Cn1nccc1C(=O)NCCN1CCC(O)(c2ccc(F)cc2)CC1
7.28

Give the measured cytotoxicity at 70.5 h for c1cncc(CN2CCCn3nnc(CN4CCCCC4)c3C2)c1
65.6

Give the measured cytotoxicity at 70.5 h for CN(Cc1ccco1)C(=O)CN1CCCC1Cn1cccn1 (stereo unspecified)
-3.69

----------
# assay notes: Human HepG2 cell viability assay in 384 well format
# Format: toxicity, cell-based
# Parameters: dose 125 nL, time 70.5 hour; concentration not given beside the values
# settings: HepG2 cells, read-out: Inhibition
measured parameter: cytotoxicity at 70.5 h (%)
Response body: numeric value in %, unit text excluded.

>  <molecule>
Cc1cc(C2CCCN2Cc2ccc(C(=O)Nc3nccs3)cc2)on1 (stereo unspecified)

>  <measured parameter>
cytotoxicity at 70.5 h

>  <numeric readout>
-2.76

$$$$

Give the measured cytotoxicity at 70.5 h for CN(Cc1cc2n(n1)CCCN(C(=O)N1CCCC1)C2)Cc1nccs1
24.4

Give the measured cytotoxicity at 70.5 h for CC(C(=O)NCC(F)(F)F)N1CCC(N2CCN(C)C2=O)CC1 (stereo unspecified)
-8.46

Give the measured cytotoxicity at 70.5 h for Cn1cc(CN2CCCC23CCN(Cc2nccn2C)CC3)cn1
3.37

Give the measured cytotoxicity at 70.5 h for COc1cccc(CNCCc2cc(F)cc3c2OCOC3)c1
14.9

Give the measured cytotoxicity at 70.5 h for Cc1nc(C)n(CC2CCCCN2CC(=O)NC2CCOCC2)n1 (stereo unspecified)
-5.93
